Data origin, for the record: PubChem BioAssay AID2060495

Recorded viability, T/C values for a group of compounds are listed next.
# Test system: 521955-158-R2-J5-PDC complex spheroid viability
# assay-name: Anticancer human tumor 521955-158-R2-J5-PDC patient-derived pancreatic carcinoma cell line growth inhibition [GQUAD]
# experimental-context: second compound 3.16 µM; first compound 3.16 µM; active compounds read low

Consider the reported viability, T/C for these compounds:
C=CC(=O)N1CCN(c2nc(=O)n(-c3c(C)ccnc3C(C)C)c3nc(-c4c(O)cccc4F)c(F)cc23)C(C)C1 (centres undefined) + CN(C)c1ccc(Nc2c3ccc(NC(=O)CCN4CCCC4)cc3nc3cc(NC(=O)CCN4CCCC4)ccc23)cc1 ... 96.7%
COc1ncnc(C2CC2)c1-c1ncc2cnn(Cc3ccc(-c4nc(C(F)(F)F)cn4C(C)C)cc3)c2n1 + Cc1[nH]c2ccc(F)cc2c1-c1nc2c3cccnc3c3ncccc3c2[nH]1 ... 125%
COc1ccc([C@@H](O)c2cc(-c3ncnc4cc(N5CCOCC5)ccc34)c(F)cc2Cl)nn1 + Cc1[nH]c2ccc(F)cc2c1-c1nc2c3cccnc3c3ncccc3c2[nH]1 ... 43.3%
CC1COCCN1c1cc(-c2ccnn2C)c2ccnc(-c3ccn[nH]3)c2n1 (centres undefined) + CN(C)c1ccc(Nc2c3ccc(NC(=O)CCN4CCCC4)cc3nc3cc(NC(=O)CCN4CCCC4)ccc23)cc1 ... 25.1%
O=C(c1cc(Cc2n[nH]c(=O)c3ccccc23)ccc1F)N1CCN(C(=O)C2CC2)CC1 + Cc1[nH]c2ccc(F)cc2c1-c1nc2c3cccnc3c3ncccc3c2[nH]1 ... 98.7%

Which value of viability, T/C has been reported for CC1COCCN1c1cc(C2(O)CC3CCC(C2)O3)c2cnn(-c3ccn[nH]3)c2n1 (centres undefined) + Cc1[nH]c2ccc(F)cc2c1-c1nc2c3cccnc3c3ncccc3c2[nH]1 in the records? 25.4%

May I ask what viability, T/C has been recorded for Nc1ccn(C2OC(CO)C(O)C2(F)F)c(=O)n1 (centres undefined) + CN(C)c1ccc(Nc2c3ccc(NC(=O)CCN4CCCC4)cc3nc3cc(NC(=O)CCN4CCCC4)ccc23)cc1 ? 12.5%

What does the data say about its viability, T/C? Entry: COc1cc(C2c3cc4c(cc3C(OC3OC5COC(C)OC5C(O)C3O)C3COC(=O)C23)OCO4)cc(OC)c1O (centres undefined) + Cc1[nH]c2ccc(F)cc2c1-c1nc2c3cccnc3c3ncccc3c2[nH]1 14.7%

Name the recorded viability, T/C for CC(=O)O[C@H]1C(=O)[C@@]2(C)[C@H]([C@H](OC(=O)c3ccccc3)[C@]3(O)C[C@H](OC(=O)[C@H](O)[C@@H](NC(=O)c4ccccc4)c4ccccc4)C(C)=C1C3(C)C)[C@]1(OC(C)=O)CO[C@@H]1C[C@@H]2O + CN(C)c1ccc(Nc2c3ccc(NC(=O)CCN4CCCC4)cc3nc3cc(NC(=O)CCN4CCCC4)ccc23)cc1 . 33.4%

Returns the measured viability, T/C for the input compound. Input: COc1cc(C2c3cc4c(cc3C(OC3OC5COC(C)OC5C(O)C3O)C3COC(=O)C23)OCO4)cc(OC)c1O (centres undefined) + Cc1cnc(CNC(=O)c2c(=O)c3ccc(N4CCCN(C)CC4)nc3n3c2sc2ccccc23)cn1 6.27%

Please look up its viability, T/C: C#Cc1c(F)ccc2cc(O)cc(-c3ncc4c(N5CC6CCC(C5)N6)nc(OCC56CCCN5CC(F)C6)nc4c3F)c12 (centres undefined) + CN(C)c1ccc(Nc2c3ccc(NC(=O)CCN4CCCC4)cc3nc3cc(NC(=O)CCN4CCCC4)ccc23)cc1 29%

Give its viability, T/C value. Item: CCCS(=O)(=O)Nc1ccc(F)c(C(=O)c2c[nH]c3ncc(-c4ccc(Cl)cc4)cc23)c1F + Cc1[nH]c2ccc(F)cc2c1-c1nc2c3cccnc3c3ncccc3c2[nH]1 265%

What does the record list as viability, T/C for CC(=O)O[C@H]1C(=O)[C@@]2(C)[C@H]([C@H](OC(=O)c3ccccc3)[C@]3(O)C[C@H](OC(=O)[C@H](O)[C@@H](NC(=O)c4ccccc4)c4ccccc4)C(C)=C1C3(C)C)[C@]1(OC(C)=O)CO[C@@H]1C[C@@H]2O + Cc1cnc(CNC(=O)c2c(=O)c3ccc(N4CCCN(C)CC4)nc3n3c2sc2ccccc23)cn1 ? 0.28%

Given the entry Cc1cccc(N(C)C(=O)C2C(O)CCN2c2nc(C)cc(C(F)(F)F)c2C#N)c1 (centres undefined) + Cc1cnc(CNC(=O)c2c(=O)c3ccc(N4CCCN(C)CC4)nc3n3c2sc2ccccc23)cn1 , report its measured viability, T/C. 20.6%

What does the data say about its viability, T/C? Entry: C=CCn1c(=O)c2cnc(Nc3ccc(N4CCN(C)CC4)cc3)nc2n1-c1cccc(C(C)(C)O)n1 + Cc1cnc(CNC(=O)c2c(=O)c3ccc(N4CCCN(C)CC4)nc3n3c2sc2ccccc23)cn1 11.7%

Query (compound): C=CCn1c(=O)c2cnc(Nc3ccc(N4CCN(C)CC4)cc3)nc2n1-c1cccc(C(C)(C)O)n1 + CN(C)c1ccc(Nc2c3ccc(NC(=O)CCN4CCCC4)cc3nc3cc(NC(=O)CCN4CCCC4)ccc23)cc1 ; field requested: viability, T/C 18.6%

Give the measured viability, T/C of COc1cccc2c1C(=O)c1c(O)c3c(c(O)c1C2=O)CC(O)(C(=O)CO)CC3OC1CC(N)C(O)C(C)O1 (centres undefined) + CN(C)c1ccc(Nc2c3ccc(NC(=O)CCN4CCCC4)cc3nc3cc(NC(=O)CCN4CCCC4)ccc23)cc1 . 1.22%

Would you kindly share the measured viability, T/C for C=CC(=O)N1CCN(c2nc(=O)n(-c3c(C)ccnc3C(C)C)c3nc(-c4c(O)cccc4F)c(F)cc23)C(C)C1 (centres undefined) + Cc1cnc(CNC(=O)c2c(=O)c3ccc(N4CCCN(C)CC4)nc3n3c2sc2ccccc23)cn1 ? 25%

What does the data say about its viability, T/C? Entry: CC(C)n1c(=O)n(C)c2cnc3cc(F)c(-c4ccc(OCCCN5CCCCC5)nc4)cc3c21 + Cc1cnc(CNC(=O)c2c(=O)c3ccc(N4CCCN(C)CC4)nc3n3c2sc2ccccc23)cn1 24.6%

----------
# System: 521955-158-R2-J5-PDC complex spheroid viability
# assay-name: Anticancer human tumor 521955-158-R2-J5-PDC cell line growth inhibition [GQUAD];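 note: spheroids exposed to agents for one week before reading; 100% = DMSO vehicle control viability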
# experimental-context: second compound 0.1 µM; first compound 0.0316 µM; active compounds read low
Property: viability, T/C; scope: individual compounds
Write down the numeric answer in % and omit the unit.

Nc1ccn(C2OC(CO)C(O)C2(F)F)c(=O)n1 (stereo unspecified) + CN(C)c1ccc(Nc2c3ccc(NC(=O)CCN4CCCC4)cc3nc3cc(NC(=O)CCN4CCCC4)ccc23)cc1 ... 76.6
CCCS(=O)(=O)Nc1ccc(F)c(C(=O)c2c[nH]c3ncc(-c4ccc(Cl)cc4)cc23)c1F + Cc1[nH]c2ccc(F)cc2c1-c1nc2c3cccnc3c3ncccc3c2[nH]1 ... 104
CC1COCCN1c1cc(C2(S(C)(=N)=O)CC2)nc(-c2ccnc3[nH]ccc23)n1 (stereo unspecified) + Cc1[nH]c2ccc(F)cc2c1-c1nc2c3cccnc3c3ncccc3c2[nH]1 ... 96.6

If you can, please state the reported viability, T/C value of Cn1ncnc1[C@H]1c2n[nH]c(=O)c3cc(F)cc(c23)N[C@@H]1c1ccc(F)cc1 + Cc1[nH]c2ccc(F)cc2c1-c1nc2c3cccnc3c3ncccc3c2[nH]1 . 80.4

What does the record list as viability, T/C for CC1COCCN1c1cc(C2(S(C)(=N)=O)CC2)nc(-c2ccnc3[nH]ccc23)n1 (stereo unspecified) + Cc1cnc(CNC(=O)c2c(=O)c3ccc(N4CCCN(C)CC4)nc3n3c2sc2ccccc23)cn1 ? 59.4

viability, T/C for CC[C@@]1(O)C(=O)OCc2c1cc1n(c2=O)Cc2cc3c(CN(C)C)c(O)ccc3nc2-1 + Cc1[nH]c2ccc(F)cc2c1-c1nc2c3cccnc3c3ncccc3c2[nH]1 ? 91.8

Entry under review: C#Cc1c(F)ccc2cc(O)cc(-c3ncc4c(N5CC6CCC(C5)N6)nc(OCC56CCCN5CC(F)C6)nc4c3F)c12 (stereo unspecified) + CN(C)c1ccc(Nc2c3ccc(NC(=O)CCN4CCCC4)cc3nc3cc(NC(=O)CCN4CCCC4)ccc23)cc1 . Reported viability, T/C? 74.2

Any idea what viability, T/C was measured for CC1COCCN1c1cc(-c2ccnn2C)c2ccnc(-c3ccn[nH]3)c2n1 (stereo unspecified) + CN(C)c1ccc(Nc2c3ccc(NC(=O)CCN4CCCC4)cc3nc3cc(NC(=O)CCN4CCCC4)ccc23)cc1 ? 66.2

I would be grateful if you could share the reported viability, T/C for COc1ccc([C@@H](O)c2cc(-c3ncnc4cc(N5CCOCC5)ccc34)c(F)cc2Cl)nn1 + Cc1[nH]c2ccc(F)cc2c1-c1nc2c3cccnc3c3ncccc3c2[nH]1 . 88.6

I am curious: what viability, T/C value has been reported for O=c1[nH]cc(F)c(=O)[nH]1 + Cc1[nH]c2ccc(F)cc2c1-c1nc2c3cccnc3c3ncccc3c2[nH]1 ? 99.6

I would be grateful if you could share the reported viability, T/C for COc1cc(C2c3cc4c(cc3C(OC3OC5COC(C)OC5C(O)C3O)C3COC(=O)C23)OCO4)cc(OC)c1O (stereo unspecified) + Cc1[nH]c2ccc(F)cc2c1-c1nc2c3cccnc3c3ncccc3c2[nH]1 . 81
